Data origin: ChEMBL document CHEMBL4033790

# run description: Cmax in Wistar rat plasma at 2 mg/kg, iv administered as single dose measured at 5 to 1440 mins post dose by HPLC-MS/MS analysis
# Assay type: ADME, organism-based
# Set-up: dose 2 mg/kg, route intravenous
Consider the following molecules; for each one, report its Cmax.
Express the result in ng/mL but write the number alone.

Record summary for [2H]C([2H])([2H])Oc1ccc(-n2nc3c4ccc(OC)cc4[nH]cc-3c2=O)cc1 : reported Cmax = 728

Record summary for COc1ccc(-n2nc3c4ccc(OC)cc4[nH]cc-3c2=O)cc1 : reported Cmax = 597

###

# run description: Ratio of brain AUC (0 to t) to plasma AUC (0 to t), Kp of the compound in Wistar rat at 10 mg/kg, ip administered as single dose by HPLC-MS/MS analysis
# Assay type: ADME, organism-based
Consider the following compounds; for each one, report its Kp.
Answer using only a numeral; do not append any unit.

Record summary for [2H]C([2H])([2H])Oc1ccc2c3nn(-c4ccc(OC)cc4)c(=O)c-3c[nH]c2c1 : reported Kp = 0.16

Record summary for [2H]C([2H])([2H])Oc1ccccc1-n1nc2c3cc(Cl)ccc3[nH]cc-2c1=O : reported Kp = 0.15

Record summary for [2H]C([2H])([2H])Oc1ccc(-n2nc3c4ccc(OC)cc4[nH]cc-3c2=O)cc1 : reported Kp = 0.13

Record summary for COc1ccc(-n2nc3c4ccc(OC)cc4[nH]cc-3c2=O)cc1 : reported Kp = 0.08

Record summary for [2H]C([2H])([2H])Oc1ccc(-n2nc3c4ccc(OC([2H])([2H])[2H])cc4[nH]cc-3c2=O)cc1 : reported Kp = 0.17

###

# target or system: Voltage-gated inwardly rectifying potassium channel KCNH2 (Homo sapiens, UniProt Q12809)
# Sequence (Q12809 whole entry): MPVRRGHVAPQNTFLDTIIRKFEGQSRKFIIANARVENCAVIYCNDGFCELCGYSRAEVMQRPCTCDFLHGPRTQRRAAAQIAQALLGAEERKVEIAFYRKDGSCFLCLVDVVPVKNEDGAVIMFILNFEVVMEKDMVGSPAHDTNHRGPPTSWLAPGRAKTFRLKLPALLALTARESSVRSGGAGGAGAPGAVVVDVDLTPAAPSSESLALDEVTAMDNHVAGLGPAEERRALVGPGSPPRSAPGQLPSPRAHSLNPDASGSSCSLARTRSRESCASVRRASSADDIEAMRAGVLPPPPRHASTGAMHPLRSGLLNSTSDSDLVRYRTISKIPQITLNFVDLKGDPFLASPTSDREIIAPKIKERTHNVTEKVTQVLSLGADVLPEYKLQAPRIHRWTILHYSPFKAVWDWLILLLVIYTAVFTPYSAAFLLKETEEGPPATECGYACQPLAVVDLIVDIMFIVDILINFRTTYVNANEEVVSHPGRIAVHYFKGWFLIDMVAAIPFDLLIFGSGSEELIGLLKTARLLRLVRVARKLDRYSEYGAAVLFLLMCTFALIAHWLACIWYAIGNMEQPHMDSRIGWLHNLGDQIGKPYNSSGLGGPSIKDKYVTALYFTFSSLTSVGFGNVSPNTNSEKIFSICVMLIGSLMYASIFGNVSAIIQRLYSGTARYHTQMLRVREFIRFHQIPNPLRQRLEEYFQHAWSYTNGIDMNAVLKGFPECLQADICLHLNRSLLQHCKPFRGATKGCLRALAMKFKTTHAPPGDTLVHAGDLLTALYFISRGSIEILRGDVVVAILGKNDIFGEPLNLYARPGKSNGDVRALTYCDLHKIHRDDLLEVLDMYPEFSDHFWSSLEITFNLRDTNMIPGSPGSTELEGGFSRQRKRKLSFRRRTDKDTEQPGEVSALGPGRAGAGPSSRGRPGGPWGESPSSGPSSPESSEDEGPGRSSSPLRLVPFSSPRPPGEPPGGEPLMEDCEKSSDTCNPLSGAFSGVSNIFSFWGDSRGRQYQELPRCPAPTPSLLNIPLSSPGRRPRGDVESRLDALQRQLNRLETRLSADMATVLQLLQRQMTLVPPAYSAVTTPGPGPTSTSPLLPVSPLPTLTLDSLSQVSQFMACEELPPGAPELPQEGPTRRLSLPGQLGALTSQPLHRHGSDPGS
# run description: Displacement of [3H]-dofetilide from human ERG expressed in HEK cell membranes at >10 uM after 60 to 90 mins by scintillation counting
readout label: inhibition (INH)

In the examples that follow, each entry is paired with its recorded inhibition (INH).
- smiles code: "COc1cccc(-n2nc3c4cc(Cl)ccc4[nH]cc-3c2=O)c1"
  measured result: "Not Active"
- smiles code: "[2H]C([2H])([2H])Oc1ccccc1-n1nc2c3cc(Cl)ccc3[nH]cc-2c1=O"
  measured result: "Not Active"
- smiles code: "[2H]C([2H])([2H])Oc1ccc(-n2nc3c4cc(Cl)ccc4[nH]cc-3c2=O)cc1"
  measured result: "Not Active"
- smiles code: "[2H]C([2H])([2H])Oc1ccc(-n2nc3c4ccc(OC([2H])([2H])[2H])cc4[nH]cc-3c2=O)cc1"
  measured result: "Not Active"
- smiles code: "[2H]C([2H])([2H])Oc1ccc(-n2nc3c4ccc(OC)cc4[nH]cc-3c2=O)cc1"
  measured result: "Not Active"

Record summary for COc1ccc(-n2nc3c4ccc(Br)cc4[nH]cc-3c2=O)cc1 : reported inhibition (INH) = Not Active

###

# run description: Tmax in Wistar rat plasma at 10 mg/kg, ip administered as single dose by HPLC-MS/MS analysis
# Assay type: ADME, organism-based
readout label: Tmax (h)
Express the result in h but write the number alone.

Record summary for [2H]C([2H])([2H])Oc1ccc2c3nn(-c4ccc(OC)nc4)c(=O)c-3c[nH]c2c1 : reported Tmax = 1

Record summary for [2H]C([2H])([2H])Oc1ccc2c3nn(-c4ccc(OC)cc4)c(=O)c-3c[nH]c2c1 : reported Tmax = 1.67

Record summary for [2H]C([2H])([2H])Oc1ccc(-n2nc3c4ccc(OC)cc4[nH]cc-3c2=O)cc1 : reported Tmax = 1.67

Record summary for [2H]C([2H])([2H])Oc1ccccc1-n1nc2c3cc(Cl)ccc3[nH]cc-2c1=O : reported Tmax = 0.78

Record summary for COc1ccc(-n2nc3c4ccc(OC)cc4[nH]cc-3c2=O)cc1 : reported Tmax = 1

Record summary for [2H]C([2H])([2H])Oc1ccc(-n2nc3c4ccc(OC([2H])([2H])[2H])cc4[nH]cc-3c2=O)cc1 : reported Tmax = 0.55
